# System: Pseudomonas aeruginosa
# METHOD_SUMMARY: Bactericidal activity against Pseudomonas aeruginosa ATCC 10145 assessed as microbial killing during 18 hrs post sub-culture onto drug-free solid media by broth dilution method
# Type: functional
# ASSAY_SETUP: ATCC 10145, 18 h, read-out: MBC99.9
In this section we review reported MBC values for a set of molecules.

Known MBC results, listed for orientation:
O=c1c2c(oc3ccccc13)-c1ccccc1OCCO2; 0.071 µM
O=c1c2c(oc3ccc(Cl)cc13)-c1ccccc1OCCCCCO2; 0.028 µM
O=c1c2c(oc3ccccc13)-c1ccccc1OCCCCCO2; 0.089 µM

query: // Input: O=c1c2c(oc3ccc(Cl)cc13)-c1ccccc1OCCCCO2 . Output its MBC only.
result: 0.058 µM

query: Answer with the recorded MBC of O=c1c2c(oc3ccc(Br)cc13)-c1ccccc1OCCCCCO2 only.
result: 0.05 µM

query: Using known records, supply MBC for O=c1c2c(oc3ccc(Br)cc13)-c1ccccc1OCCCCO2
result: 0.024 µM

query: Give me measured MBC, please, for this molecule: O=c1c2c(oc3ccc(Br)cc13)-c1ccccc1OCCO2
result: 0.061 µM

query: Note down MBC recorded for O=c1c2c(oc3ccc(F)cc13)-c1ccccc1OCCO2
result: 0.033 µM

query: Complete the entry with MBC for O=c1c2c(oc3ccc(Br)cc13)-c1ccccc1OCCCO2
result: 0.037 µM

query: Please give the documented MBC of O=c1c2c(oc3ccccc13)-c1ccccc1OCCCCO2
result: 0.082 µM

query: Tell me its MBC given O=c1c2c(oc3ccc(F)cc13)-c1ccccc1OCCCCO2 as the entry.
result: 0.03 µM

query: Look up and state reported MBC for O=c1c2c(oc3ccc(Cl)cc13)-c1ccccc1OCCCO2
result: 0.03 µM

* * *

# Tested on: Bacillus subtilis
# METHOD_SUMMARY: Bactericidal activity against Bacillus subtilis ATCC 6633 assessed as microbial killing during 18 hrs post sub-culture onto drug-free solid media by broth dilution method
# Format: functional
# ASSAY_SETUP: ATCC 6633, 18 h, read-out: MBC99.9
# note: boundary value 0.06 µM maps to 0.0; MBC below it maps to 1.0

Previously resolved entries follow.
O=c1c2c(oc3ccc(Cl)cc13)-c1ccccc1OCCCCCO2; 1.0
O=c1c2c(oc3ccccc13)-c1ccccc1OCCO2; 0.0
O=c1c2c(oc3ccc(Cl)cc13)-c1ccccc1OCCCCO2; 1.0
O=c1c2c(oc3ccc(Cl)cc13)-c1ccccc1OCCO2; 1.0
O=c1c2c(oc3ccc(Br)cc13)-c1ccccc1OCCCCO2; 1.0
O=c1c2c(oc3ccc(Br)cc13)-c1ccccc1OCCCO2; 1.0
O=c1c2c(oc3ccc(F)cc13)-c1ccccc1OCCCCO2; 1.0
O=c1c2c(oc3ccc(Br)cc13)-c1ccccc1OCCCCCO2; 1.0

query: Report whether reported MBC is lower than 0.06 µM (strictly) for O=c1c2c(oc3ccc(F)cc13)-c1ccccc1OCCCCCO2
result: 1.0

query: Please indicate whether the reported MBC of O=c1c2c(oc3ccc(F)cc13)-c1ccccc1OCCCO2 is strictly below 0.06 µM.
result: 1.0

query: Please check: MBC for O=c1c2c(oc3ccccc13)-c1ccccc1OCCCO2 , strictly under 0.06 µM or not?
result: 1.0

query: I'd appreciate it if you could check whether O=c1c2c(oc3ccccc13)-c1ccccc1OCCCCO2 has MBC smaller than 0.06 µM.
result: 0.0

query: API: query returns whether the compound falls strictly under 0.06 µM in MBC. Query: O=c1c2c(oc3ccc(Cl)cc13)-c1ccccc1OCCCO2
result: 0.0

query: Record O=c1c2c(oc3ccccc13)-c1ccccc1OCCCCCO2 : is its MBC strictly below 0.06 µM?
result: 0.0

query: Bench note: check whether O=c1c2c(oc3ccc(F)cc13)-c1ccccc1OCCO2 shows MBC below 0.06 µM
result: 0.0

query: Given the entry O=c1c2c(oc3ccc(Br)cc13)-c1ccccc1OCCO2 , would its reported MBC be below 0.06 µM?
result: 1.0
